System: OVCAR-5 ovarian
Assay: NCI tumour cell line growth inhibition, 48 h
Measurement name: TGI

Compound | Recorded result
CC(C)N(CCNc1nc(C(Cl)(Cl)Cl)nc2cc(Cl)ccc12)C(C)C | 2.48 µM
CNc1ccc(C)cc1S(=O)(=O)c1ccccc1[N+](=O)[O-] | > 100 µM
Cc1cccc2c(N)c3cccc(C(=O)NCCNCCN)c3nc12 | > 100 µM
O=[N+]([O-])c1ccc(C2Nn3c(nnc3-c3cccc([N+](=O)[O-])c3)S2)cc1 (stereo not drawn) | > 100 µM
CCN1C[C@@H](C)n2c(c(O)c3c(=O)n(Cc4ccc(F)c(Cl)c4)nc(C(=O)NC)c32)C1=O | > 100 µM

Lookup: Recorded TGI for N=C1C(c2nc3ccccc3c(=O)[nH]2)=C(O)CN1c1cccc(Cl)c1 , please?
Found: > 100 µM

Lookup: Recorded TGI for CN1CCOC1(C)c1ccccc1 (stereo not drawn) , please?
Found: > 100 µM

----------
Test system: CCRF-CEM leukemia
Assay: NCI tumour cell line growth inhibition, 48 h; in the data active means GI50 below about 0.43 µM; inactive means the rest
Bench note: report the call from active, inactive

Reference set (2 entries):
Molecule | Qualitative label
N#Cc1ncc(-c2ccc(C(F)(F)F)cc2)c(NC2CCCCCC2)n1 | inactive
CCN(CC)CCN1C(=O)c2c(c3c4cccc(Cl)c4n(C4OC(CO)C(OC)C(O)C4O)c3c3[nH]c4c(Cl)cccc4c23)C1=O (stereo unspecified) | active

Lookup: Kindly provide the recorded test outcome for the following molecule: O=C(O)C1CC[N-]CC1.O=C(O)C1CC[N-]CC1.[NH2-].[NH2-].[Pt+4]
Found: inactive

Lookup: Kindly provide the recorded test outcome for the following molecule: COc1cc(C2C=C(C)N=C3SC=C(C)N32)cc(OC)c1OC (stereo unspecified)
Found: active

Lookup: Kindly provide the recorded test outcome for the following molecule: CCN1C[C@@H](C)n2c(c(O)c3c(=O)n(Cc4ccc(F)c(Cl)c4)nc(C(=O)NC)c32)C1=O
Found: inactive

Lookup: Kindly provide the recorded test outcome for the following molecule: CCCCCCCCCCCCCCCC(=O)OCC1OC(OCCCC)[C@H](O[C@@H]2OC(C)C(OC(=O)CCC)C(O)C2O)C(O)C1O (stereo partly specified)
Found: inactive

----------
System: OVCAR-3 ovarian
Assay: NCI tumour cell line growth inhibition, 48 h
Documented TGI across a set of compounds

Guide cases for TGI, answers given:
Compound | TGI
NN/C(=N\S(=O)(=O)c1cc(S(=O)(=O)c2ccccc2)cs1)Nc1ccc(Cl)cc1 | 54.2 µM
O=C1NC(=NCCc2ccccc2F)S/C1=C\c1ccc2ncccc2c1 | 24.2 µM
COC1(OC)CCCCCCCCC(OC)(OC)CCCCCCCC1 | > 100 µM
O=C(Cc1csc2[n+]1C(=O)/C(=C/c1ccc(Cl)cc1)S2)Nc1ccccc1 | 27.7 µM
N#CC(Cl)CS(=O)(=O)c1ccccc1 (stereo unspecified) | 7.17 µM

Consider the additional compound presented here.
Lookup: Recorded TGI for CC(C)=NC(C(=O)O)C(C)(C)S (stereo unspecified) , please?
Found: > 100 µM

----------
Test system: HCC-2998 colon
Test: NCI tumour cell line growth inhibition, 48 h
Documented TGI across a set of molecules

Lookup: Recorded TGI for CC(=O)Nn1c(Cc2ccc(Cl)cc2)nn(C)c1=O , please?
Found: > 100 µM

Lookup: Recorded TGI for C=C(Cl)[C@](Cl)(CBr)CC[C@@H](Br)C(C)(C)Cl , please?
Found: 2.93 µM

Lookup: Recorded TGI for CSc1ccccc1NC1=NCCO1 , please?
Found: > 100 µM

Lookup: Recorded TGI for O=C(Nc1ccc(C(F)(F)F)cc1[N+](=O)[O-])C(=O)Nn1c(=S)[nH]c2ccccc2c1=O , please?
Found: > 100 µM

Lookup: Recorded TGI for COC(=O)c1ccccc1C1CN=NC12Cc1cc3c(cc1C2=O)CCC3 (stereo unspecified) , please?
Found: > 100 µM

Lookup: Recorded TGI for CC(=O)Nc1ccc2cc(C#N)c(=O)[nH]c2n1 , please?
Found: > 100 µM

----------
System: MDA-MB-435
Test: NCI tumour cell line growth inhibition, 48 h
Measurement name: TGI

Guide cases for TGI, answers given:
Chemical smiles | TGI
CC(=O)OC/C=C\Cn1ncc(=O)[nH]c1=O | 39.3 µM
O=Nn1c2ccccc2c2ccccc21 | > 100 µM

Consider the additional compound presented here.
Lookup: Which TGI is reported with MDA-MB-435 for this entry: CN1CCC(=C(c2ccc(Cl)cc2)c2ccccn2)CC1 ?
Found: > 100 µM

----------
Test system: EKVX NSCLC
Assay: NCI tumour cell line growth inhibition, 48 h
Measurement name: TGI

Guide cases for TGI, answers given:
Compound | TGI
CN(C)CCNc1ncnc2nc(-c3ccccc3)c(-c3ccccc3)nc12 | > 100 µM
COC(=O)C1=C(C)N(NC(N)=O)C2(N)N(NC(N)=O)C(C)=C(C(=O)OC)C12C#N (centres undefined) | > 100 µM
N#C/C(=C\c1ccc(O)c(O)c1)C(=O)NCc1cccc(C(F)(F)F)c1 | 39.8 µM

Consider the additional compound presented here.
Lookup: Which TGI is reported with EKVX NSCLC for this entry: O=C(N[C@H](CO)[C@H](O)c1ccc([N+](=O)[O-])cc1)C(Cl)Cl ?
Found: > 100 µM

----------
Tested on: RXF 393 renal
Experiment: NCI tumour cell line growth inhibition, 48 h
Measurement name: TGI

Guide cases for TGI, answers given:
Molecule | Measurement name | Recorded result
C#CCC(O)c1ccc(OC)c(OCc2ccccc2)c1 (stereo not drawn) | TGI | > 100 µM
CN(C)CCNc1ncnc2nc(-c3ccccc3)c(-c3ccccc3)nc12 | TGI | > 100 µM
O=C(O)c1cc(-c2ccc(-c3ccccc3)cc2)nc2cc3ccccc3cc12 | TGI | > 100 µM

Lookup: Recorded TGI for Oc1c(Cl)cc(Cl)c(Cl)c1Cc1c(O)c(Cl)cc(Cl)c1Cl , please?
Found: 22.4 µM

Lookup: Recorded TGI for N=C1C(c2nc3ccccc3c(=O)[nH]2)=C(O)CN1c1cccc(Cl)c1 , please?
Found: > 27.3 µM

----------
System: HT29 colon
Assay: NCI tumour cell line growth inhibition, 48 h
Documented TGI across a set of compounds

Guide cases for TGI, answers given:
Compound | Recorded result
C#CC(O)/C=C/C(O)CCCC(O)CC#CC(O)C#CCCCCC(O)/C=C/CCCCCC(=O)CCCCCCCCCCCCCC(O)C(O)C#CC(=O)O (stereo not drawn) | > 25 µM
c1ccc(C2(c3cc4ccccc4[nH]3)OCCO2)nc1 | > 100 µM

Consider the additional compound presented here.
Lookup: Recorded TGI for CC(C)=NC(C(=O)O)C(C)(C)S (stereo not drawn) , please?
Found: > 100 µM

----------
Test system: MALME-3M melanoma
Assay: NCI tumour cell line growth inhibition, 48 h; in the data active means GI50 below about 0.43 µM; inactive means the rest
Bench note: report the call from 1.0 = active, 0.0 = inactive

Lookup: Kindly provide the recorded test outcome for the following compound: CC[C@@]1(O)C(=O)OCc2c1cc1n(c2=O)Cc2cc3cc(O)ccc3nc2-1
Found: 1.0

Lookup: Kindly provide the recorded test outcome for the following compound: Cc1c(Br)c(Br)c2c3c1nc(N1CCNCC1)n3CCC2
Found: 0.0

Lookup: Kindly provide the recorded test outcome for the following compound: CCOC(=O)C(Cc1ccccc1)n1c(O)c(/C=N/c2ncc(Cc3ccc(Cl)cc3Cl)s2)sc1=S (stereo not given)
Found: 0.0

Lookup: Kindly provide the recorded test outcome for the following compound: COc1ccc(-c2cc(-c3ccc(Cl)cc3)nc(SCCCC(=O)NO)n2)cc1OC
Found: 0.0

Lookup: Kindly provide the recorded test outcome for the following compound: Cc1cc(NS(=O)(=O)c2ccc(-c3cnc(C4CC4)o3)cc2)ccc1Cl
Found: 0.0

----------
Test system: SK-MEL-5 melanoma
Test: NCI tumour cell line growth inhibition, 48 h
Documented TGI across a set of compounds

Compound | TGI
O=C(CC(O)(C(F)(F)F)C(F)(F)F)c1cccs1 | > 10 µM
COC(=O)CSc1cc(Cl)c(C)cc1S(=O)(=O)Nc1n[nH]c(N)n1 | > 10 µM
OCC1NC(CO)C(O)C1O (stereo not given) | > 100 µM
C/C(=N\O)C1CC(CC(=O)O)C1(C)C (stereo not given) | > 100 µM
COC12OCCN(C)C1=CC(=O)C1N=NCC12 (stereo not given) | > 100 µM

Lookup: Recorded TGI for COc1ccc(CCn2ccc(C)n2)c(OC)c1 , please?
Found: > 100 µM

Lookup: Recorded TGI for CCCN(CCCC(NC(C)=O)C(=O)NCc1ccccc1)C(=O)N(C)N=O (stereo not given) , please?
Found: > 100 µM

Lookup: Recorded TGI for O=C(O)CCC1C(=O)C2CCN1CC2 (stereo not given) , please?
Found: > 100 µM

Lookup: Recorded TGI for NC(=S)NN=Cc1ccccc1OCc1cccc(COc2ccccc2C=NNC(N)=S)n1 , please?
Found: > 100 µM

Lookup: Recorded TGI for C[Si](C)(C)CCOCN(C(=O)C1=CCC2(CC1)OCCO2)c1ccccc1I , please?
Found: > 100 µM

The measurements presented in this section are drawn from PubChem BioAssay (NCI).
